# Test: compound effects on hepatocellular carcinoma cell viability – HepG2, calcein-AM fluorescence, 48 h, basal, profiling panel (AID 1164); note: test concentration not given here
# Condition info: higher = more signal

Compound	z-score
O=C(NCC(O)CO)[C@]1(CCS(=O)(=O)c2ccccc2)N=C(c2ccc(OCCCO)cc2)O[C@@H]1c1ccccc1 (some centres not stated)	-0.635
O=C1C2C=CC(C(O)c3ccc(B(O)O)cc3)N(Nc3ccc([N+](=O)[O-])cc3)C2C(=O)N1c1ccccc1 (configuration not stated)	-5.4
COCCn1c(C(=O)N(C)C)cc2c1C[C@H]1CN(C(=O)c3ccccc3)[C@@](Cc3ccc(F)cc3)(C(=O)OC)[C@@H]21	0.684
COc1ccc([Si](C)(C)[C@@H]2[C@@H](CCO)O[C@]3(C(=O)N(Cc4cccc(N(C=O)c5ccccc5)c4)c4ccccc43)[C@H]2C)cc1	-0.854
O=C(N1CCCCC1)[C@]1(CCS(=O)(=O)c2ccccc2)N=C(c2ccc(OCCCO)cc2)O[C@@H]1c1ccccc1	-0.663
O=C1O[C@H](c2ccccc2)[C@H](c2ccccc2)N2[C@H]1[C@@H](C(=O)Nc1nc3ccccc3s1)[C@]1(C(=O)Nc3ccc(C#CC4=CCCCC4)cc31)[C@H]2c1ccc(OCCO)cc1	-0.819
CC1CC/C=C\[C@H]2OC34C=CCN(c5ccc6ccccc6c5)C(=O)[C@H]3N(CCCCCO)C(=O)[C@@H]4C2C(=O)O1 (some centres not stated)	0.778
C/C=C/[C@H](CCn1cc([C@H](O)c2ccccc2)nn1)[Si](C)(C)c1ccc(OC)cc1	-0.689
Cc1ccccc1/C=C/C=O	0.93
CCCNC(=O)[C@@]1(C)c2ccccc2C(=O)N(Cc2cc(F)cc(C(F)(F)F)c2)[C@H]1c1ccc(CO)cc1	-0.14
O=P(NCC1(CC2(c3ccccc3)CO2)CC1)(c1ccccc1)c1ccccc1 (configuration not stated)	0.676
CCCCN1CC=CC23O[C@@H]4C=CCCOC(=O)C4[C@H]2C(=O)N(CCCO)[C@@H]3C1=O (some centres not stated)	-0.365
COc1ccccc1CN1C(=O)c2ccccc2[C@](Cc2ccccc2I)(C(=O)NC2CC2)[C@@H]1c1ccc(CO)cc1	-0.468
CN1C(=O)C2C(C1=O)C1C=C(c3ccc(CO)cc3)C2C(C2CC2)N1Cc1cc2c(cc1Br)OCO2 (configuration not stated)	1.81
C=C(C(=O)CC[C@@H](OC(=O)c1cccnc1)c1ccc(CO)o1)C(C)C	-0.545
OCCCc1cc[n+](Cc2cccc(OC(F)(F)F)c2)cc1	-1.18
O=C1C2C=CC(C(O)c3cccc4ccccc34)N(n3cnnc3)C2C(=O)N1Cc1ccccc1 (configuration not stated)	-1.6

Source: PubChem BioAssay
